B1: glmS ribozyme (parent)
chain: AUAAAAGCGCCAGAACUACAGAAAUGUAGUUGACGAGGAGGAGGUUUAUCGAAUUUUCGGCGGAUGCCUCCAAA

Variants of: B1
Test: self-cleavage kobs at 2500 uM GlcN6P; higher = faster cleavage; RNA array
Conditions: with glucosamine-6-phosphate
This sample holds only a part of the variants without activity.
Provide the recorded self-cleavage kobs at 2500 uM GlcN6P for the entries that follow.
Give the number; s⁻¹ is assumed, so skip it.

// self-cleavage kobs at 2500 uM GlcN6P lookup, variant = AUAAAAGCGCCAGAACUACAGAAAUGUAGUUGACGAGGAGGAGGUUUAUCGAAUUUGCGGCGGAUGCGUCCAAA [U57G C68G] , result: 5.88e-05

// self-cleavage kobs at 2500 uM GlcN6P lookup, variant = AUAAAAGCGCCAGAAGUACAGAAAUGUAGUUGACGAGGAGGAGGUUUAUCGAAUUUUCGGCGGAUGACUCCAAA [C16G C67A] , result: 0.000618

// self-cleavage kobs at 2500 uM GlcN6P lookup, variant = AUAAAAGCGCCAUUACUACAGAAAUGUAGUUGACGAGGAGGAGGUUUAUCGAAUUUUAGGCGGAUGUCUCCAAA [G13U A14U C58A C67U] , result: 0.000334

// self-cleavage kobs at 2500 uM GlcN6P lookup, variant = AUAAAAGCGCCGGAACUACAGAAAUGUAGUUGACGAGGAGGAGGUUUAUCGAAUUUUGGGCGGAUGCCUCUAAA [A12G C58G C71U] , result: 3.81e-05

// self-cleavage kobs at 2500 uM GlcN6P lookup, variant = AUAAAAGCGCCAGAACUACAGAAAUGUAGUUGACGAGGUGGAGGUUUAUCGAAUUCUCGGCGGAUGCCUCCAAA [A39U U56C] , result: 0.000804

// self-cleavage kobs at 2500 uM GlcN6P lookup, variant = AUAAAAGCGCCAGUACUACAGAAAUGUAGUUGACGAGGAGGAGGUUUAUCGAAUUUUCGGCGGAUGCCUCUAAA [A14U C71U] , result: 0.00252

// self-cleavage kobs at 2500 uM GlcN6P lookup, variant = AUAAAAGCGCCAGAACUACAGAAAUGUAGUUGACGAAGAGGAGGUUUAUCGAAUUUUCGGCGGAGGCCUCCAAA [G37A U65G] , result: 0.000102

// self-cleavage kobs at 2500 uM GlcN6P lookup, variant = AUAAAAGCGCCGGAACUACAGAAAUGUAGUUGACGAGGAGGAGGUUUAUCGAAUUUUCGGCGGAGGCCUCCAAA [A12G U65G] , result: 4.72e-05

// self-cleavage kobs at 2500 uM GlcN6P lookup, variant = AUAAAAGCGCCACAACUACAGAAAUGUAGUGGACGAGGAGGAGGUUUAUCGAAUUUUCGGCGGAUGCCUUCAAA [G13C U31G C70U] , result: 0.000148

// self-cleavage kobs at 2500 uM GlcN6P lookup, variant = AUAAAAGCGCCAGAACUACAGAAAUGUAGUUGACGAGGAGGAGGUUUAUCGAAUUACCGGCGGAUGACUCCAAA [U56A U57C C67A] , result: 4.71e-05

// self-cleavage kobs at 2500 uM GlcN6P lookup, variant = AUAAAAGCGCCAGAACUACAGAAAUGUAGUUGACGAGGAGGAGGUUUAUGGAAGUUUCGGCGGAUGCCUCCAAA [C50G U54G] , result: 3.85e-05

// self-cleavage kobs at 2500 uM GlcN6P lookup, variant = AUAAAAGCGCCUGAACUACAGAAAUGUAGUUGACGAGGUAGAGGUUUAUCGAAUUUUCGGCGGAUGCCUCCAAA [A12U A39U G40A] , result: 0.00415

// self-cleavage kobs at 2500 uM GlcN6P lookup, variant = AUAAAAGCGCCAGGACUACAGAAAUGUAGUUGACGAGGAGGAGGCUUAUCGAAUUUUCGGCGGAUGCCUCCAAA [A14G U45C] , result: 0.00215

// self-cleavage kobs at 2500 uM GlcN6P lookup, variant = AUAAAAGCGCCAGAAAUACAGAAAUGUAGUUUACGAGGAGGAGGUUUAUCGAAUGUUCGGCGGAUGCCUCCAAA [C16A G32U U55G] , result: 0.000117

// self-cleavage kobs at 2500 uM GlcN6P lookup, variant = AUAAAAGCGCCAGAGCUACAGAAAUGUAGUUGACGAGGAGGAGGUUUAUCGAAAUUUCGGCGGAUCCCUCCAAA [A15G U54A G66C] , result: 0.000502

// self-cleavage kobs at 2500 uM GlcN6P lookup, variant = AUAAAAGCGCCAGUACUACAGAAAUGUAGUUGACGAGGAGCAGGUUUAUCGAAUUUUCGGCGGAUGCCUGCAAA [A14U G41C C70G] , result: 0.0459

// self-cleavage kobs at 2500 uM GlcN6P lookup, variant = AUAAAAGCGCCAGAACUACAGAAAUGUAGUUGACGAGGAGCAGGUUUAUCGAACUUUCGGCGGAUGCCUCCAAA [G41C U54C] , result: 0.000162

// self-cleavage kobs at 2500 uM GlcN6P lookup, variant = AUAAAAGCGCCAGAACUACAGAAAUGUAGUUGACGAGGAGGAGGUUGAUUGAAUUUUCGGCGGAUGCCUCCAAA [U47G C50U] , result: 3.64e-05

// self-cleavage kobs at 2500 uM GlcN6P lookup, variant = AUAAAAGCGCAAGAUCUACAGAAAUGUAGUUGACGAGGAGGAGGUUUAUCGAAUUUUCGGCGGAUGCCUCCAAA [C11A A15U] , result: 3.75e-05

// self-cleavage kobs at 2500 uM GlcN6P lookup, variant = AUAAAAGCGCCAGAACUACAGAAAUGUAGUUGACGAGGAGGAGGUCUUUCGAAUUUUCGGCGGAUGCCUCCAAA [U46C A48U] , result: 6.44e-05

// self-cleavage kobs at 2500 uM GlcN6P lookup, variant = AUAAAAGCGCCAUAACUACAGAAAUGUAGUUGACGAGGAGGAGGUUUAUCGGAUUUUCGGCGGAUGCCUCCAAA [G13U A52G] , result: 6.21e-05

// self-cleavage kobs at 2500 uM GlcN6P lookup, variant = AUAAAAGCGCCAGAACUACAGAAAUGUAGUUGACGAGGAGGAGUUAUAUCGAAUUUUCGGCGGAUGCCUCCAAA [G44U U46A] , result: 0.000112

// self-cleavage kobs at 2500 uM GlcN6P lookup, variant = AUAAAAGCGCCAGAAAUACAGAAAUGUAGUUGACGAGGAGGAGGUUUAUCGAAUUUUCGGCGGAUGCCCCCAAA [C16A U69C] , result: 7.87e-05

// self-cleavage kobs at 2500 uM GlcN6P lookup, variant = AUAAAAGCGCCUGAACUACAGAAAUGUAGUUGACGAGGAGGAGGUUUAUCGAAUUUUCGGCGGAUGUCUCGAAA [A12U C67U C71G] , result: 6.07e-05

// self-cleavage kobs at 2500 uM GlcN6P lookup, variant = AUAAAAGCGCCAGAACUACAGAAAUGUAGUUGACGAGGAGGAGGUUUAUCGAAUUUAAGGCGGAUGCCUGCAAA [U57A C58A C70G] , result: 0.000143

// self-cleavage kobs at 2500 uM GlcN6P lookup, variant = AUAAAAGCGUCUGAACUACAGAAAUGUAGUUGACGAGGAGGGGGUUUAUCGAAUUUUCGGCGGAUGCCUCCAAA [C10U A12U A42G] , result: 0.000153

// self-cleavage kobs at 2500 uM GlcN6P lookup, variant = AUAAAAGCGCCAGAAUUACAGAAAUGUAGUCGACGAGGAGGAGGUCUAUCGAAUUUUCGGCGGAUGCCUUCAAA [C16U U31C U46C C70U] , result: 0.000342

// self-cleavage kobs at 2500 uM GlcN6P lookup, variant = AUAAAAGCGCCAGAACUACAGAAAUGUAGUUGACGAGGAUGAGGUCUAUCGAAUUUUCGGCGGAUGCCUCCAAA [G40U U46C] , result: 0.000971

// self-cleavage kobs at 2500 uM GlcN6P lookup, variant = AUAAAAGCGCCAGAACUACAGAAAUGUAGUUGACGAGGAGGAGGUUCAUAGAAUUUUCGGCGGAUGCCGCCAAA [U47C C50A U69G] , result: 9.43e-05

// self-cleavage kobs at 2500 uM GlcN6P lookup, variant = AUAAAAGCGCCAGAACUACAGAAAUGUACUUGACGAGGAGGAGGUUUAUGGAAUUUUCGGCGGAUGCCUCCAAA [G29C C50G] , result: 0.000178

// self-cleavage kobs at 2500 uM GlcN6P lookup, variant = AUAAAAGCGCCAGAACUACAGAAAUGUAGUUGACGAGGAAGAGGUUUAUCGAAUUUUCGGCGGAAGCCUCCAAA [G40A U65A] , result: 0.000615

// self-cleavage kobs at 2500 uM GlcN6P lookup, variant = AUAAACGCGCUAGAACUACAGAAAUGUAGUUGACGAGGAGGAGGUUUAUCCAAUUUUCGGCGGAUGGAUCCAAA [A6C C11U G51C C67G C68A] , result: 0.00015

// self-cleavage kobs at 2500 uM GlcN6P lookup, variant = AUAAAAGCGCCAGAACUACAGAAAUGUAGUUGACGAGGAGGAGGUUUUUCGAAUCUUCGGCGGAUGCCUCCAAA [A48U U55C] , result: 0.000214

// self-cleavage kobs at 2500 uM GlcN6P lookup, variant = AUAAAAGCGCCAGAACUACAGAAAUGUAGUUGACGAGGAGGAGGUUUAUCGAAUUUUCGGCGGAUGCCGGCAAA [U69G C70G] , result: 3.6e-05

// self-cleavage kobs at 2500 uM GlcN6P lookup, variant = AUAAAAGCGCCAGAACUACAGAAAUGUAGUUGACGAGGAGGAGGUUUAUCGAAUUUAGGGCGGAUGCCUCCAAA [U57A C58G] , result: 2.42e-05

// self-cleavage kobs at 2500 uM GlcN6P lookup, variant = AUAAAGGCGCCAGCACUACAGAAAUGUAGUUGACGAGGAGGAGGUUUAUCGAGUUUUCGGCGGAUGCCUCCAAA [A6G A14C A53G] , result: 6.89e-05

// self-cleavage kobs at 2500 uM GlcN6P lookup, variant = AUAAAAGCGCCAGAACUACAGAAAUGUAGUUGACGAGGAGGAGGGUUAUCGAACUUUCGGCGGAUGCCUCCAAA [U45G U54C] , result: 0.00519

// self-cleavage kobs at 2500 uM GlcN6P lookup, variant = AUAAAAGCGCCAGAACUACAGAAAUGUAGUUGACGAGGAAGAGGUUUAUCGAAUUUUCGGCGGAGGCCUCCAAA [G40A U65G] , result: 0.00107

// self-cleavage kobs at 2500 uM GlcN6P lookup, variant = AUAAAAGCGCCAGUACUACAGAAAUGUAGUUGACGAGGAGGAGGACUAUCGAAUUUUCGGCGGAUGCCUCCAAA [A14U U45A U46C] , result: 0.00191

// self-cleavage kobs at 2500 uM GlcN6P lookup, variant = AUAAAAGCGCCAGAACUACAGAAAUGUAGUUGACGAGGAGGAGGUUGUUCGAAUUGUCGGCGGAUGCAUCCAAA [U47G A48U U56G C68A] , result: 0.000324

// self-cleavage kobs at 2500 uM GlcN6P lookup, variant = AUAAAAGCGCCAGAACUACAGAAAUGUAGUUGACGAGGAGGAGGUUUAUCGAAUUUGCGGCGGAUGCCUCUAAA [U57G C71U] , result: 1.65e-05

// self-cleavage kobs at 2500 uM GlcN6P lookup, variant = AUAAAAGCGCCAGAACUACAGAAAUGUAGUUGACGAGGAGGAGGUAUAUCGAAUUUUCGGCGGAUACCUCCAAA [U46A G66A] , result: 0.000321

// self-cleavage kobs at 2500 uM GlcN6P lookup, variant = AUAAAAGCGCCAGAACUACAGAAAUGUAGUUGACGAAGAGAAGGUUUAUCGAAUUUUCGGCGGAUGCCUUCAAA [G37A G41A C70U] , result: 0.00206

// self-cleavage kobs at 2500 uM GlcN6P lookup, variant = AUAAAAGCGCCAGAACUACAGAAAUGUAGUUGACGAGGAGGAGGUUUAUCGAAUUUUCGGAGGAUGUCUCCAAA [C61A C67U] , result: 4.8e-05
